# Measurement Target: Adenosine receptor A2a (Homo sapiens)
# Sequence (P29274 whole entry): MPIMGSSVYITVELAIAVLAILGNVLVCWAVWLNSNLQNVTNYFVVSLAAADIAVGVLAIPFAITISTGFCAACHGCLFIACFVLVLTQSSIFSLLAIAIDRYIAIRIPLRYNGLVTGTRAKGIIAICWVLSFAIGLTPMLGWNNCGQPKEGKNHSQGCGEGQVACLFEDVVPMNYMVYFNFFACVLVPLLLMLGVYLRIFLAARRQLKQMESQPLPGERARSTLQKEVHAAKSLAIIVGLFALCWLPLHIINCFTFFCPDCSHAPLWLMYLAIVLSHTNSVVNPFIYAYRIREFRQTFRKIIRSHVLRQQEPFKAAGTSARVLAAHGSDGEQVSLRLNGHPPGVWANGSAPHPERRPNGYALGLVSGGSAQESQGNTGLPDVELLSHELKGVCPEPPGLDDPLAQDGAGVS
# Protocol: Antagonist activity at human adenosine 2A receptor overexpressed in HEK293 cells preincubated for 0.5 hrs followed by NECA stimulation by GloSensor cAMP assay
# Assay type: functional, cell-based
pIC50: −log10 of the molar value.
Here the recorded pIC50 is given for each entry.
Reported Property: pIC50

>>> value_observed("Cc1ccc2c(Cn3cc(-c4cc(-c5cccc(C#N)c5C)nc(N)n4)nn3)c[nH]c2c1")
6.49
>>> value_observed("Cc1c(C#N)cccc1-c1cc(-c2cn(Cc3c[nH]c4ccc(Cl)cc34)nn2)nc(N)n1")
6.61
>>> value_observed("Cc1c(C#N)cccc1-c1cc(-c2cn(Cc3c[nH]c4c(Cl)cccc34)nn2)nc(N)n1")
5.94
>>> value_observed("COc1ccc2c(Cn3cc(-c4cc(-c5cccc(C#N)c5C)nc(N)n4)nn3)c[nH]c2c1")
6.88
>>> value_observed("Cc1c(C#N)cccc1-c1cc(-c2cn(Cc3c[nH]c4cc(Cl)c(Cl)cc34)nn2)nc(N)n1")
5.20
>>> value_observed("Cc1c(C#N)cccc1-c1cc(-c2cn(Cc3c[nH]c4ncccc34)nn2)nc(N)n1")
5.65
>>> value_observed("Cc1c(C#N)cccc1-c1cc(-c2cn(Cc3csc4c3CCCC4)nn2)nc(N)n1")
7.94
>>> value_observed("Cc1c(C#N)cccc1-c1cc(-c2cn(Cc3csc4ccccc34)nn2)nc(N)n1")
7.46
>>> value_observed("Cc1c(C#N)cccc1-c1cc(-c2cn(Cc3c[nH]c4cc(F)ccc34)nn2)nc(N)n1")
6.92
>>> value_observed("Cc1c(C#N)cccc1-c1cc(-c2cn(Cc3c[nH]c4cc(Cl)ccc34)nn2)nc(N)n1")
6.12
>>> value_observed("Cc1c(C#N)cccc1-c1cc(-c2cn(Cc3c[nH]c4cc(OC(C)C)ccc34)nn2)nc(N)n1")
5.41
>>> value_observed("Cc1c(C#N)cccc1-c1cc(-c2cn(Cc3ccc4[nH]ccc4c3)nn2)nc(N)n1")
5.99
>>> value_observed("Cc1ccc2[nH]cc(Cn3cc(-c4cc(-c5cccc(C#N)c5C)nc(N)n4)nn3)c2c1")
6.99
